# Tested on: SW-620
# Assay Summary: NCI tumour cell line growth inhibition, 48 h
The source made the active and inactive calls. Cut-off read from the data, not from the text of the source: active = GI50 up to about 1.1 µM and inactive = higher.
Assay Readout: GI50

I'm hoping you can list GI50 for every compound here, please.
1. OCC1OC(c2n[nH]c3c(O)ncnc23)C(O)C1O (stereo not given)
2. CC(=O)C1(O)CCC2(O)C3(O)CC=C4CC(O)CCC4(C)C3CC(OC(=O)c3ccc(O)cc3)C12C (stereo not given)
3. N#C/C(=C/c1cccc2ccccc12)C(=O)c1ccccc1
4. O=c1[nH]c(C23CC4CC(CC(C4)C2)C3)cc2c1c(=O)oc1ccccc12
5. O=[N+]([O-])c1ccc(-n2nnc(C3=NCCCN3)c2-c2ccc(Cl)cc2)cc1
6. COC(=O)/C=C/c1cc(OC)c(OC)c(OC)c1
7. CC1(C)Oc2ccc(NC(=O)CCC(N)C(=O)O)cc2O1 (stereo not given)

["4.17 µM (inactive)", "> 100 µM (inactive)", "16.8 µM (inactive)", "7.59 µM (inactive)", "> 100 µM (inactive)", "> 100 µM (inactive)", "> 100 µM (inactive)"]

I'm hoping you can list GI50 for every compound here, please.
1. COc1ccc(C(=O)N(C(=O)N2CCN(c3ccccc3)CC2)S(=O)(=O)c2ccccc2)cc1
2. O=C(/C=C/c1ccc(O)c(O)c1)OCc1ccccc1 [BENZYL CAFFEATE]
3. Cc1nc2ccccc2c(=O)n1/N=C(\N=N\c1cc(Cl)ccc1Cl)c1ccccc1

1. 37.4 µM (inactive)
2. 17.4 µM (inactive)
3. 32.1 µM (inactive)
